target_or_test_system: T1, Biotin-huCGRPaSA (human, not fully specified; biotin (position not given))
T1 construct: exact construct ('aSA') not explained; also called Biotin CGRPaSA; full-length (1-37) CGRP
T1 peptide: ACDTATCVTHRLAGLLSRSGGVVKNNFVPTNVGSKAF
assay_remarks: ELISA, supernatant; relative to chimeric C245
property: Relative binding activity, %
Dear colleague, please send the value followed by its unit.

Solved cases below.
| binder | Relative binding activity, % |
| --- | --- |
| hu155 (antibody, V domains shown, 3E5 HC-1/3H10 LC2-1) VH: QVQLVQSGAEVKKPGASVKVSCKTSGYTFTDYNMHWVRQAPGQRLEWMGYISPYNGGTAYNQKFKFRVTLTVDTSSSTAYMELSSLRSEDTAVYYCAREGLGGYWGQGTLVTVSS VL: DIVLTQSPDSLAVSLGERATINCKASQNIDYGGYSYMNWYQQKPGQPPKVLIYSVFNLESGVPDRFSGSGSGTDFTLTISSLQAEDVAVYYCQQSNEAPYTFGQGTKLEIK | 74% |
| hu235 (antibody, V domains shown, 3C1 HC-4/3C1 LC-2) VH: QVQLVQSGAEVKKPGASVKVSCKASGYTFTGYTMNWVRQAPGQGLEWMGLINPYIGNTHYNQKFKDRVTFTVDRSSSTAYMELSRLRSDDTAVYYCARELDSGFDYWGQGTLVTVSS VL: DVVMTQTPLSLSVTPGQPASISCRSSQNIVHSNGDTYLEWYLQKPGQSPQLLIYKVSNRFSGVPDRFSGSGSGTDFTLKISRVEAEDVGVYYCYQGSHVPWTFGQGTKLEIK | 74% |

Turning now to a further record.
Q: Quick check: Relative binding activity, % of hu99 (antibody, V domains shown, 2A2 HC-1/1F5 LC1-4) VH: QVQLVQSGAEVKKPGASVKVSCKASGYTFTDYNMHWVRQAPGQRLEWMGYVYPYNGGSAYNQKFKSRVTLTVDTSSSTAYMELSSLRSEDTAVYYCAREGLGGYWGQGTLVTVSS VL: DIVLTQSPDSLAVSLGERATINCKASQNIDFDGYAYMNWYQHKPGQPPKVLIYSVFNLESGVPDRFSGSGSGTDFTLTISSLQAEDVAVYYCQQSHEVPYTFGQGTKLEIK ?
Result: 74%

From: patent US20260125454A1
